Recorded IC50 by entry
EXPERIMENTAL SYSTEM: KRAS^G12C-SOS1 (Homo sapiens (Human), UniProt P01116, G12C)
Sequence (P01116-2 other isoform, or with tags, fused parts or gaps G12C): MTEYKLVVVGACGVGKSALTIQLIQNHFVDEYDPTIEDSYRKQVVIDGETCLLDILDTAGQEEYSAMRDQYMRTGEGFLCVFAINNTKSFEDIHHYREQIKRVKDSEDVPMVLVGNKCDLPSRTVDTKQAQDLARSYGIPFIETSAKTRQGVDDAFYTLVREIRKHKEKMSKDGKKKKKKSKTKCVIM
ASSAY COMMENT: HTRF KRAS G12C/SOS1 binding assay
CONDITION DETAILS: Table 5

MOL SMILES: COc1ncc(-c2ccc3ncnc(N4CCN(C(=O)/C=C/C(C)=O)CC4)c3n2)cc1NS(=O)(=O)c1cc(F)ccc1F
IC50 (nM): 207

MOL SMILES: COc1ccc(Cl)c(S(=O)(=O)Nc2cc(-c3ccc4ncnc(N5CCN(C(=O)/C=C/C(C)=O)CC5)c4c3)cnc2OC)c1
IC50 (nM): 365

MOL SMILES: COc1ncc(-c2ccc3ncnc(N4CCN(C(=O)/C=C/C(C)=O)CC4)c3n2)cc1NS(=O)(=O)c1c(F)cccc1Cl
IC50 (nM): 110

MOL SMILES: COc1ncc(-c2ccc3ncnc(N4CCN(C(=O)/C=C/C(C)=O)CC4)c3c2)cc1NS(=O)(=O)c1sc(C)nc1C
IC50 (nM): 169

MOL SMILES: COc1ncc(-c2ccc3ncnc(N4CCN(C(=O)/C=C/C(C)=O)C[C@@H]4C)c3c2)cc1NS(=O)(=O)c1c(F)cc(F)cc1F
IC50 (nM): 183

* * *

EXPERIMENTAL SYSTEM: PI3Kα (Homo sapiens (Human), UniProt P42336)
Sequence (P42336 whole entry, one chain of several): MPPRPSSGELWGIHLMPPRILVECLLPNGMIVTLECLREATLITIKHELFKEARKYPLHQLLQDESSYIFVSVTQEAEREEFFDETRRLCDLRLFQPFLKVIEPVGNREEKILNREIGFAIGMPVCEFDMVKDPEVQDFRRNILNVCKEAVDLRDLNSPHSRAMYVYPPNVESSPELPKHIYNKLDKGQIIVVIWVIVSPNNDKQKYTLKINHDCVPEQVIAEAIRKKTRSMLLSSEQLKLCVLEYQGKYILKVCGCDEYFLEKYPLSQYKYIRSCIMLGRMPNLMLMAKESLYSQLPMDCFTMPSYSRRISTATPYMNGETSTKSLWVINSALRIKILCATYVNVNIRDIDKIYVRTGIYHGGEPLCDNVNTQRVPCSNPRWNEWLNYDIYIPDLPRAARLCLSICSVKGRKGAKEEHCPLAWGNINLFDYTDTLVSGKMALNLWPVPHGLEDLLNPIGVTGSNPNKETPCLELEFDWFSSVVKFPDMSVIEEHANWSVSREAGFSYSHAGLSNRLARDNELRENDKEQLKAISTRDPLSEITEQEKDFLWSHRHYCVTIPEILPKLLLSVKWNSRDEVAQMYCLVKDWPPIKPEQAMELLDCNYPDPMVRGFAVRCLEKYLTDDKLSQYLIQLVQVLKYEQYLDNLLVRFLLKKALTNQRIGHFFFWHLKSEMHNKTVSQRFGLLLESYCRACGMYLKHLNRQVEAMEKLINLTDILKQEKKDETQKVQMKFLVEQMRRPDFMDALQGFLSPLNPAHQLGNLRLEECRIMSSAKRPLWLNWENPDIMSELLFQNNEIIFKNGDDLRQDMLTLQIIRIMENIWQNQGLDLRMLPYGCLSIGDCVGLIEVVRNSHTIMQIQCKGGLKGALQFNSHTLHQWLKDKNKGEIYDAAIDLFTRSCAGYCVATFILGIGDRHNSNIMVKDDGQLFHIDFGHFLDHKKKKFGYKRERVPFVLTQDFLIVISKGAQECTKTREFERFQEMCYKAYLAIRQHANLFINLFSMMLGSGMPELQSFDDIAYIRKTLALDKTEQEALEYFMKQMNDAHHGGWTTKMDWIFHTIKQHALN
ASSAY COMMENT: Inhibition of PI3Kα efficacy assay (ADP-Glo kinase assay)
Type: biochemical
CONDITION DETAILS: Table 2; read-out: PI3Kα inhibitory activity (IC50)
pIC50: −log10 of the molar value.

MOL SMILES: COc1ncc(-c2ccc3ncnc(N4CCN(C(=O)/C=C/C(C)=O)CC4)c3c2)cc1NS(=O)(=O)c1ccccc1F
pIC50: 8.59

MOL SMILES: CC(=O)/C=C/C(=O)N1CCN(c2ncnc3ccc(-c4cnc(OC5CCCC5)c(NS(=O)(=O)c5ccc(F)cc5F)c4)cc23)CC1
pIC50: 6.90

MOL SMILES: C=C(F)C(=O)N1CCN(c2ncnc3ccc(-c4cnc(OC)c(NS(=O)(=O)c5c(F)cccc5F)c4)cc23)[C@@H](C)C1
pIC50: 8.55

* * *

Test system: MIA PaCa-2 cells (KRAS G12C mutant)
ASSAY COMMENT: MIA PaCa-2 cell anti-proliferation (CellTiter-Glo)
Type: cell-based
CONDITION DETAILS: Homo sapiens, 72 h; MIA Paca-2 cells, 3 days, Table 7; read-out: MIA PaCa-2 (IC50)
// boundary case: IC50 equal to 60 nM maps to no (0); strictly smaller maps to yes (1)

MOL SMILES: CCOc1ncc(-c2ccc3ncnc(N4CCN(C(=O)/C=C/C(C)=O)CC4)c3n2)cc1NS(=O)(=O)c1ccccc1F
CLASS: no (0)
--
MOL SMILES: COc1ncc(-c2ccc3ncnc(N4CCN(C(=O)/C=C/C(C)=O)CC4)c3n2)cc1NS(=O)(=O)c1ccc(F)cc1Cl
CLASS: yes (1)
--
MOL SMILES: COc1ncc(-c2ccc3ncnc(N4CCN(C(=O)/C=C/C(C)=O)CC4)c3c2)cc1NS(=O)(=O)c1cccc(F)c1F
CLASS: yes (1)
--
MOL SMILES: CSc1ncc(-c2ccc3ncnc(N4CCN(C(=O)/C=C/C(C)=O)CC4)c3c2)cc1NS(=O)(=O)c1ccc(F)cc1F
CLASS: no (0)
--
MOL SMILES: COc1ncc(-c2ccc3ncnc(C4CCN(C(=O)/C=C/C(C)=O)CC4)c3c2)cc1NS(=O)(=O)c1sc(C)nc1C
CLASS: yes (1)
--
MOL SMILES: COc1ncc(-c2ccc3ncnc(C4=CCN(C(=O)/C=C/C(C)=O)CC4)c3c2)cc1NS(=O)(=O)c1ccc(F)cc1F
CLASS: yes (1)
--
MOL SMILES: COc1ncc(-c2ccc3ncnc(N4CC5CCC(C4)N5C(=O)/C=C/C(C)=O)c3c2)cc1NS(=O)(=O)c1sc(C)nc1C
CLASS: yes (1)
--
MOL SMILES: C=C(F)C(=O)N1CCN(c2ncnc3ccc(-c4cnc(OC)c(NS(=O)(=O)c5c(F)cccc5F)c4)nc23)CC1
CLASS: yes (1)
--
MOL SMILES: COc1ncc(-c2ccc3ncnc(C4=CCN(C(=O)/C=C/C(C)=O)CC4)c3c2)cc1NS(=O)(=O)c1c(F)cccc1F
CLASS: yes (1)
--
MOL SMILES: CC(=O)/C=C/C(=O)N1CCN(c2ncnc3ccc(-c4cnc(OC(F)F)c(NS(=O)(=O)c5ccc(F)cc5F)c4)cc23)CC1
CLASS: no (0)
--
MOL SMILES: CCC(=O)/C=C/C(=O)N1CCN(c2ncnc3ccc(-c4cnc(OC)c(NS(=O)(=O)c5c(F)cccc5F)c4)nc23)CC1
CLASS: yes (1)
--
MOL SMILES: COc1ncc(-c2ccc3ncnc(N4CCC5(CC4)CN(C(=O)/C=C/C(C)=O)C5)c3c2)cc1NS(=O)(=O)c1ccc(F)cc1
CLASS: no (0)
--
MOL SMILES: COc1ncc(-c2ccc3ncnc(N4CCN(C(=O)/C=C/C(C)=O)[C@H](C)C4)c3n2)cc1NS(=O)(=O)c1ccccc1F
CLASS: yes (1)
--
MOL SMILES: CNC(=O)/C=C/C(=O)N1CCN(c2ncnc3ccc(-c4cnc(OC)c(NS(=O)(=O)c5ccc(F)cc5F)c4)cc23)CC1
CLASS: no (0)
--
MOL SMILES: COc1ncc(-c2ccc3ncnc(N4CCN(C(=O)/C=C/C(C)=O)CC4)c3n2)cc1NS(=O)(=O)c1ccc(F)cc1
CLASS: yes (1)
--
MOL SMILES: COC/C=C/C(=O)N1CCN(c2ncnc3ccc(-c4cnc(OC)c(NS(=O)(=O)c5c(F)cccc5F)c4)nc23)CC1
CLASS: yes (1)
--
MOL SMILES: COc1ncc(-c2ccc3ncnc(N4CCN(C(=O)/C=C/n5ccnn5)CC4)c3c2)cc1NS(=O)(=O)c1ccc(F)cc1F
CLASS: no (0)
--
MOL SMILES: COc1ncc(-c2ccc3ncnc(N4CCC5(CC=CC5=O)CC4)c3c2)cc1NS(=O)(=O)c1ccc(F)cc1F
CLASS: yes (1)
--
MOL SMILES: COc1ncc(-c2ccc3ncnc(C4=CCN(C(=O)/C=C/C(C)=O)CC4)c3c2)cc1NS(=O)(=O)c1ccccc1F
CLASS: yes (1)
--
MOL SMILES: COc1ncc(-c2ccc3ncnc(N4CCN(C(=O)/C=C/C(C)=O)CC4)c3n2)cc1NS(=O)(=O)c1ccc(F)cc1F
CLASS: yes (1)
--
MOL SMILES: COc1ncc(-c2ccc3ncnc(N4CCN(C(=O)/C=C/C(C)=O)CC4)c3c2)cc1NS(C)(=O)=O
CLASS: no (0)
--
MOL SMILES: COc1ncc(-c2ccc3ncnc(C4CCN(C(=O)/C=C/C(C)=O)CC4)c3n2)cc1NS(=O)(=O)c1sc(C)nc1C
CLASS: yes (1)
--
MOL SMILES: C=CC(=O)N1CCN(c2ncnc3ccc(-c4cnc(OC)c(NS(=O)(=O)c5ccc(F)cc5F)c4)cc23)[C@@H](C)C1
CLASS: yes (1)
--
MOL SMILES: COc1ncc(-c2ccc3ncnc(N4CCC5(CC4)CN(C(=O)/C=C/C(C)=O)C5)c3c2)cc1NS(=O)(=O)c1ccc(F)cc1Cl
CLASS: yes (1)

* * *

EXPERIMENTAL SYSTEM: PI3Kδ (Homo sapiens (Human))
Sequence (O00329 whole entry): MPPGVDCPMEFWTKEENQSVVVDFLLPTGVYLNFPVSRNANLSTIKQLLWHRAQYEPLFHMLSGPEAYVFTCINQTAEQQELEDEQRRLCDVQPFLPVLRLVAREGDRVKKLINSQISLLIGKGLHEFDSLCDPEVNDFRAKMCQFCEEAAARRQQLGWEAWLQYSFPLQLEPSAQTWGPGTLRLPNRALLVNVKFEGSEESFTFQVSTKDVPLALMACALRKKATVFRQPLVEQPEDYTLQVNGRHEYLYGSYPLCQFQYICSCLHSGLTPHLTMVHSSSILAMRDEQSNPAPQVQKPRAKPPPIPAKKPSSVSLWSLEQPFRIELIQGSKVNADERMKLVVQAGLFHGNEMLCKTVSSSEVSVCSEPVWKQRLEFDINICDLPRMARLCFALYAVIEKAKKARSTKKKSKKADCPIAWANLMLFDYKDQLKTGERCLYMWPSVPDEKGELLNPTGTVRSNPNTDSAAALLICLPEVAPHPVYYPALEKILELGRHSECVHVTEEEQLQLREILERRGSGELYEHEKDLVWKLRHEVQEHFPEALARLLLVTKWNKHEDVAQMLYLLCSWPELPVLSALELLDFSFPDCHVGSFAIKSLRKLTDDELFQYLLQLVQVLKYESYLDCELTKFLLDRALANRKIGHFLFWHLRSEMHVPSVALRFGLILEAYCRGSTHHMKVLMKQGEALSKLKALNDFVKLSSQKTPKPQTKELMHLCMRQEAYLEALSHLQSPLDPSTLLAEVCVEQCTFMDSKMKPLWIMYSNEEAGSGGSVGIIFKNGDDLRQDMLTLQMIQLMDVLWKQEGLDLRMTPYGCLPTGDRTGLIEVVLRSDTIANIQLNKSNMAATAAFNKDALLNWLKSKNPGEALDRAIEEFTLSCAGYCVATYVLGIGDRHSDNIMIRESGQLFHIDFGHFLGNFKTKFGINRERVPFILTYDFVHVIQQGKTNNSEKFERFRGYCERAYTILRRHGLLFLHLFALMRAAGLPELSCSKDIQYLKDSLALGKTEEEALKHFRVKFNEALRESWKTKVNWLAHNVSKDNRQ
Sequence (P27986 whole entry partner): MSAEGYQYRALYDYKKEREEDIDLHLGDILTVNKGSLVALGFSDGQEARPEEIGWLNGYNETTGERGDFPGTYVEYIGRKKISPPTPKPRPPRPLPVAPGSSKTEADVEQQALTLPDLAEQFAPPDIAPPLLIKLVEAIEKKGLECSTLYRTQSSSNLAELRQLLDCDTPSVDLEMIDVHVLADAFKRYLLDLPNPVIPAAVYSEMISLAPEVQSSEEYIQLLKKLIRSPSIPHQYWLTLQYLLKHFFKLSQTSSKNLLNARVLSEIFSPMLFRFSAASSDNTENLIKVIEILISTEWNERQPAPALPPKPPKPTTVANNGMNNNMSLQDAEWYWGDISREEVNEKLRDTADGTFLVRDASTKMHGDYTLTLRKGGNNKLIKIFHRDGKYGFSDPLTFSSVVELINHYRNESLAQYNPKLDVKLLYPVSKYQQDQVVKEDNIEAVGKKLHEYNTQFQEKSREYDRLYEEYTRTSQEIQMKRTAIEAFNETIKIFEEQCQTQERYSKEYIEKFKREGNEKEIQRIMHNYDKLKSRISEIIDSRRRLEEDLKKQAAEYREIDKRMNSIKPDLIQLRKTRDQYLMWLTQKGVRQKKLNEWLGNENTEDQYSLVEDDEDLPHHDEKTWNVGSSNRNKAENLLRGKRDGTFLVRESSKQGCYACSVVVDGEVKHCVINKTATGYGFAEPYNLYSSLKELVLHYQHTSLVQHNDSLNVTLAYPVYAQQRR
ASSAY COMMENT: Inhibition of PI3Kδ efficacy assay (ADP-Glo kinase assay)
Format: biochemical
CONDITION DETAILS: Table 2; read-out: PI3Kδ inhibitory activity (IC50)

MOL SMILES: C=CC(=O)N1CCN(c2ncnc3ccc(-c4cnc(OC5CCCC5)c(NS(=O)(=O)c5ccc(F)cc5F)c4)cc23)CC1
IC50 / nM: 117
//
MOL SMILES: COc1ncc(-c2ccc3ncnc(N4CCN(C5CN(C(=O)/C=C/C(C)=O)C5)CC4)c3c2)cc1NS(=O)(=O)c1ccc(F)cc1F
IC50 / nM: 37.2
//
MOL SMILES: CC(=O)/C=C/C(=O)N1CCN(c2ncnc3ccc(-c4cnc(OC5CCCC5)c(NS(=O)(=O)c5ccc(F)cc5F)c4)cc23)CC1
IC50 / nM: 794
//
MOL SMILES: COc1ncc(-c2ccc3ncnc(N4CCN(C(=O)/C=C/C(C)=O)CC4)c3c2)cc1NS(=O)(=O)c1c(F)cccc1C#N
IC50 / nM: 4.7
//
MOL SMILES: C=C(F)C(=O)N1CCN(c2ncnc3ccc(-c4cnc(OC5CCCC5)c(NS(=O)(=O)c5ccc(F)cc5F)c4)cc23)CC1
IC50 / nM: 268
//
MOL SMILES: COc1ncc(-c2ccc3ncnc(N4CCN(C(=O)/C=C/C(C)=O)CC4)c3c2)cc1NS(=O)(=O)c1c(F)cncc1F
IC50 / nM: 32.8
//
MOL SMILES: COc1ncc(-c2ccc3ncnc(N4CCN(C(=O)/C=C/C(C)=O)CC4)c3c2)cc1NS(=O)(=O)c1ccc(C#N)cc1F
IC50 / nM: 31.4
//
MOL SMILES: COc1ncc(-c2ccc3ncnc(N4CCN(C(=O)/C=C/C(C)=O)CC4)c3c2)cc1NS(=O)(=O)c1ccccc1C
IC50 / nM: 72.9
//
MOL SMILES: COc1ncc(-c2ccc3ncnc(N4CCN(C(=O)C5=CC(=O)CC5)CC4)c3c2)cc1NS(=O)(=O)c1ccc(F)cc1F
IC50 / nM: 23.2
//
MOL SMILES: COc1ncc(-c2ccc3ncnc(N4CCN(C(=O)/C=C/S(C)(=O)=O)CC4)c3c2)cc1NS(=O)(=O)c1ccc(F)cc1F
IC50 / nM: 31.2
//
MOL SMILES: COc1ncc(-c2ccc3ncnc(N4CCN(C(=O)/C=C/C(C)=O)[C@@H](CC#N)C4)c3c2)cc1NS(=O)(=O)c1ccc(F)cc1F
IC50 / nM: 23.9
//
MOL SMILES: C=C(F)C(=O)N1C[C@H](C)N(c2ncnc3ccc(-c4cnc(OC)c(NS(=O)(=O)c5ccc(F)cc5F)c4)cc23)C[C@H]1C
IC50 / nM: 27.7
//
MOL SMILES: COc1ncc(-c2ccc3ncnc(N4CCC5(CN(C(=O)/C=C/C(C)=O)C5)C4)c3c2)cc1NS(=O)(=O)c1c(F)cccc1F
IC50 / nM: 16.5

The measurements presented in this section are drawn from patent US20250145589A1.
